From: PubChem BioAssay AID1159580

# TEST: chemical genetic growth profiling, strain panel (AID 1159580);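 also: tested at 20 µM; growth read once vehicle control cultures reached saturation at 30 °C; 1 = growth at the plate median or of vehicle wells; lower values mean less growth of the strain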
# CONDITION_SUMMARY: S. cerevisiae deletion strains, growth OD, locus YLL041C, strain sdh2, active compounds read low
Hit rate of the full screen: of about 5,500 compounds, about 2,000 (36%) were called active. Not shown: some 18% with an inconclusive outcome. Some of the results follow.
PROPERTY_NAME: normalized growth

Sample records with normalized growth:
CCC1(c2ccc(N)cc2)CCC(=O)NC1=O (configuration not stated)
0.968 (inactive)
CC(=O)O[C@]1(C(C)=O)CCC2C3C[C@H](C)C4=CC(=O)CC[C@]4(C)C3CC[C@@]21C (some centres not stated)
0.968 (inactive)
COc1ccc(-c2cc(=O)c3c(O)cc(OC)c(OC)c3o2)c(OC)c1
1.02 (inactive)
Cc1ccc2c(c1)CC[C@H]1CC(=O)CC[C@]21C
0.991 (inactive)
CN=C(NC#N)NCCSCc1nc(N=C(N)N)cs1
0.973 (inactive)
C[N+](C)(C)CC(=O)[O-]
0.963 (inactive)

Next:
normalized growth recorded for this molecule, O=C(O)C1CC([C@@H]2CCCCN2)CN2CCCCC12 (some centres not stated) , is 0.997 (inactive)

###

# TEST: chemical genetic growth profiling, strain panel (AID 1159580);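 also: tested at 20 µM; growth read once vehicle control cultures reached saturation at 30 °C; 1 = growth at the plate median or of vehicle wells; lower values mean less growth of the strain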
# CONDITION_SUMMARY: S. cerevisiae deletion strains, growth OD, locus YLR058C, strain SHM2, active compounds read low
Out of some 5,500 compounds screened, about 2,000 (36%) were called active. Inconclusive results (about 18%) are left out. The list shows a part of the results.
PROPERTY_NAME: normalized growth
One number for each entry.

Guide cases for normalized growth, answers given:
Nc1nc2[nH]c(=O)c(=O)[nH]c2c(=O)[nH]1
1.01
CC(=C(CCOP(=O)(O)O)SC(=O)c1ccccc1)N(C=O)Cc1cnc(C)nc1N
1.02
C/C=C(/C(=C/C)c1ccc(O)cc1)c1ccc(O)cc1
0.759

For the next question, use this compound.
The measured normalized growth associated with "NC(N)=NOCC[C@H](N)C(=O)O" reads 0.984

###

# TEST: chemical genetic growth profiling, strain panel (AID 1159580);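 also: tested at 20 µM; growth read once vehicle control cultures reached saturation at 30 °C; 1 = growth at the plate median or of vehicle wells; lower values mean less growth of the strain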
# CONDITION_SUMMARY: S. cerevisiae deletion strains, growth OD, locus YKR001C, strain vps1, active compounds read low
Out of some 5,500 compounds screened, about 2,000 (36%) were called active. About 18% were inconclusive and are not listed. The list shows a part of the results.
What normalized growth was measured for each of the following?
One number for each entry.

A selection of reference data follows.
O=C(O)c1cc(=O)c2ccc(Cl)cc2[nH]1
0.998
OCCN(CCO)c1nc(N2CCCCC2)c2nc(N(CCO)CCO)nc(N3CCCCC3)c2n1
1.02
CC(C)CC1C(=O)N2CCC[C@H]2C2(O)O[C@](NC(=O)C3C=C4c5cccc6[nH]c(Br)c(c56)C[C@H]4N(C)C3)(C(C)C)C(=O)N12 (stereo not given in full)
0.989
OC(CCN1CCCCC1)(c1ccccc1)c1ccccc1
1.01

Input CCC1(C)CC(=O)NC1=O (stereo not given) . Output normalized growth: 1.01

###

# TEST: chemical genetic growth profiling, strain panel (AID 1159580);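 also: tested at 20 µM; growth read once vehicle control cultures reached saturation at 30 °C; 1 = growth at the plate median or of vehicle wells; lower values mean less growth of the strain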
# CONDITION_SUMMARY: S. cerevisiae deletion strains, growth OD, locus YOR136W, strain idh2, active compounds read low
Screen size: about 5,500 compounds; about 2,000 (36%) were called active. Inconclusive results (about 18%) are left out. The list shows a part of the results.
PROPERTY_NAME: normalized growth
Answers are plain numbers.

Cn1cc[nH]c1=S
0.987
Cc1cc(=O)c2c(O)cc(O)c(C)c2o1
0.981
Cc1c(O)cc(O)c2c(=O)c(-c3ccc(O)cc3)coc12
0.999
C=C(C)/C=C1/C=CC(=O)C(C)=C1
0.106
C=CC(C)(C)c1c2c(c(O)c3c(=O)c4ccc(O)c(O)c4oc13)C=CC(C)(C)O2
0.97

Return reported normalized growth values for all items listed beneath this line.
1. COc1c(O)cc2oc3cc(O)c(CC=C(C)C)c(O)c3c(=O)c2c1CC=C(C)C
2. Cc1cc(=O)c2c(O)c(C)c(O)cc2o1

Result:
1: 0.899; 2: 0.949
